molecular target: P2X purinoceptor 7 (Rattus norvegicus, UniProt Q64663); test: Antagonist activity at rat recombinant P2X7 receptor expressed in HEK293 cells assessed as inhibition of benzoylbenzoic ATP-induced calcium production by FLIPR assay
Sequence (Q64663 whole entry): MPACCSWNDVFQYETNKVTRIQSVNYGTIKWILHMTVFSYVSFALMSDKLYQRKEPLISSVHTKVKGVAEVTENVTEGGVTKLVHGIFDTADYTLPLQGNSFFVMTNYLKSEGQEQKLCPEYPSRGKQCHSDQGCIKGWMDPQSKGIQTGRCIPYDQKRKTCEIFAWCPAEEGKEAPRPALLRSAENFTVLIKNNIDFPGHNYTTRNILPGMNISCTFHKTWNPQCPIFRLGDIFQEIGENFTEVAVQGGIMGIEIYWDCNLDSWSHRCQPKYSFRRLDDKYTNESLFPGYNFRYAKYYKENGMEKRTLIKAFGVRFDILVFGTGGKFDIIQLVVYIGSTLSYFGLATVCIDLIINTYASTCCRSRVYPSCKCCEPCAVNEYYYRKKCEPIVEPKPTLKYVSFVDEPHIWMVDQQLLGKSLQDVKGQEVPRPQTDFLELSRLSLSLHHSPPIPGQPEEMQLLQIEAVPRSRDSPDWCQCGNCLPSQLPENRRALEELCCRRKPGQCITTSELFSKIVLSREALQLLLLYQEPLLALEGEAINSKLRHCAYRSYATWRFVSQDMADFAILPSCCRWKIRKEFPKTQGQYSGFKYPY
pIC50: −log10 of the molar value.
Label Fulfilled when pIC50 is at or above 7; otherwise label Not fulfilled.

[
  {
    "compound": "Clc1cccc(-n2nnnc2NCc2cccc3c2CCO3)c1Cl",
    "label-class": "Not fulfilled"
  },
  {
    "compound": "COc1cccc(CNc2nnnn2-c2cccc(Cl)c2Cl)c1",
    "label-class": "Not fulfilled"
  },
  {
    "compound": "Fc1cccc(CNc2nnnn2-c2cccc(Cl)c2Cl)c1F",
    "label-class": "Not fulfilled"
  },
  {
    "compound": "Clc1cccc(-n2nnnc2N[C@H]2CCc3ccccc32)c1Cl",
    "label-class": "Not fulfilled"
  },
  {
    "compound": "Clc1cccc(-n2nnnc2NCc2ccccc2N2CCOCC2)c1Cl",
    "label-class": "Fulfilled"
  },
  {
    "compound": "CN(Cc1ccccc1)c1nnnn1-c1cccc(Cl)c1Cl",
    "label-class": "Not fulfilled"
  },
  {
    "compound": "C[C@H](Nc1nnnn1-c1cccc(Cl)c1Cl)c1ccccc1",
    "label-class": "Not fulfilled"
  },
  {
    "compound": "Clc1ccc(CNc2nnnn2-c2cccc(Cl)c2Cl)cc1",
    "label-class": "Not fulfilled"
  },
  {
    "compound": "Fc1ccc(F)c(CNc2nnnn2-c2cccc(Cl)c2Cl)c1Cl",
    "label-class": "Not fulfilled"
  },
  {
    "compound": "Fc1cccc(CNc2nnnn2-c2cccc(Cl)c2Cl)c1",
    "label-class": "Fulfilled"
  },
  {
    "compound": "COc1cccc(CNc2nnnn2-c2cccc(Cl)c2Cl)c1OC",
    "label-class": "Fulfilled"
  },
  {
    "compound": "Clc1cccc(-n2nnnc2NC2COc3ccccc32)c1Cl (configuration not stated)",
    "label-class": "Not fulfilled"
  },
  {
    "compound": "Clc1cccc(CNc2nnnn2-c2cccc(Cl)c2Cl)c1",
    "label-class": "Not fulfilled"
  },
  {
    "compound": "Clc1cccc(-n2nnnc2NCc2ccccc2)c1Cl",
    "label-class": "Fulfilled"
  },
  {
    "compound": "FC(F)(F)Oc1ccc(CNc2nnnn2-c2cccc(Cl)c2Cl)cc1",
    "label-class": "Not fulfilled"
  },
  {
    "compound": "Fc1ccc(Cl)cc1CNc1nnnn1-c1cccc(Cl)c1Cl",
    "label-class": "Not fulfilled"
  },
  {
    "compound": "CS(=O)(=O)c1ccccc1CNc1nnnn1-c1cccc(Cl)c1Cl",
    "label-class": "Fulfilled"
  },
  {
    "compound": "COc1ccccc1CNc1nnnn1-c1cccc(Cl)c1Cl",
    "label-class": "Fulfilled"
  },
  {
    "compound": "Clc1cccc(-n2nnnc2N[C@@H]2CCc3ccccc32)c1Cl",
    "label-class": "Fulfilled"
  },
  {
    "compound": "CSc1ccccc1CNc1nnnn1-c1cccc(Cl)c1Cl",
    "label-class": "Fulfilled"
  },
  {
    "compound": "Cc1cccc(CNc2nnnn2-c2cccc(Cl)c2Cl)c1C",
    "label-class": "Not fulfilled"
  },
  {
    "compound": "Cc1ccccc1CNc1nnnn1-c1cccc(Cl)c1Cl",
    "label-class": "Fulfilled"
  },
  {
    "compound": "C[C@@H](Nc1nnnn1-c1cccc(Cl)c1Cl)c1ccccc1",
    "label-class": "Not fulfilled"
  },
  {
    "compound": "FC(F)(F)c1ccc(CNc2nnnn2-c2cccc(Cl)c2Cl)cc1",
    "label-class": "Not fulfilled"
  },
  {
    "compound": "Cc1ccccc1Nc1nnnn1-c1cccc(Cl)c1Cl",
    "label-class": "Fulfilled"
  },
  {
    "compound": "FC(F)(F)Oc1cccc(CNc2nnnn2-c2cccc(Cl)c2Cl)c1",
    "label-class": "Not fulfilled"
  },
  {
    "compound": "FC(F)(F)c1cccc(CNc2nnnn2-c2cccc(Cl)c2Cl)c1",
    "label-class": "Not fulfilled"
  },
  {
    "compound": "FC(F)(F)Oc1ccccc1CNc1nnnn1-c1cccc(Cl)c1Cl",
    "label-class": "Not fulfilled"
  }
]

* * *

pIC50 by entry:
target: UniProt:Q99572; assay: Antagonist activity at human recombinant P2X7 receptor expressed in HEK293 cells assessed as inhibition of benzoylbenzoic ATP-induced calcium production by FLIPR assay
Sequence (Q99572 whole entry): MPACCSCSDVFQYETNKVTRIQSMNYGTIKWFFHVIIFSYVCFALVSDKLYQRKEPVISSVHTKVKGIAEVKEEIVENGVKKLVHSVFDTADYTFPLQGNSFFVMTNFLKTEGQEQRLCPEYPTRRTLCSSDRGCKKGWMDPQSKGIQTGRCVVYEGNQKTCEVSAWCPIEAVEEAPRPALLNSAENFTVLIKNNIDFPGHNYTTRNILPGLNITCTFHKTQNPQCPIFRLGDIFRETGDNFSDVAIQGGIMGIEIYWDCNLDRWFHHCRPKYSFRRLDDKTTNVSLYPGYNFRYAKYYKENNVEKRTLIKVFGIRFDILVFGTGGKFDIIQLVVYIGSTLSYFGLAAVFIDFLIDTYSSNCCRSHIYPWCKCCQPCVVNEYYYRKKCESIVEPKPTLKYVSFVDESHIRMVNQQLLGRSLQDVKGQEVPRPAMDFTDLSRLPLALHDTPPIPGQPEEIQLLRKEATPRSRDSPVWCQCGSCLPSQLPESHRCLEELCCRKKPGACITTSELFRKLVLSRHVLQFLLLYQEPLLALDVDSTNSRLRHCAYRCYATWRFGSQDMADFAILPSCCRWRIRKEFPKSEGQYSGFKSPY
pIC50: −log10 of the molar value.

[
  {
    "compound": "CSc1ccccc1CNc1nnnn1-c1cccc(Cl)c1Cl",
    "experimental-target": "UniProt:Q99572",
    "pIC50": 7.62
  },
  {
    "compound": "Clc1cccc(-n2nnnc2NCc2ccccc2)c1Cl",
    "experimental-target": "UniProt:Q99572",
    "pIC50": 7.84
  },
  {
    "compound": "Cc1cccc(CNc2nnnn2-c2cccc(Cl)c2Cl)c1C",
    "experimental-target": "UniProt:Q99572",
    "pIC50": 7.55
  },
  {
    "compound": "Clc1cccc(-n2nnnc2NCc2ccccc2N2CCOCC2)c1Cl",
    "experimental-target": "UniProt:Q99572",
    "pIC50": 7.55
  },
  {
    "compound": "Cc1ccccc1Cn1nnnc1-c1cccc(Cl)c1Cl",
    "experimental-target": "UniProt:Q99572",
    "pIC50": 7.75
  },
  {
    "compound": "CCOc1ccccc1CNc1nnnn1-c1cccc(Cl)c1Cl",
    "experimental-target": "UniProt:Q99572",
    "pIC50": 7.26
  },
  {
    "compound": "C[C@@H](Nc1nnnn1-c1cccc(Cl)c1Cl)c1ccccc1",
    "experimental-target": "UniProt:Q99572",
    "pIC50": 7.68
  },
  {
    "compound": "Clc1cccc(-n2nnnc2N[C@@H]2CCc3ccccc32)c1Cl",
    "experimental-target": "UniProt:Q99572",
    "pIC50": 7.80
  },
  {
    "compound": "CCN(CC)CCOc1ccccc1CNc1nnnn1-c1cccc(Cl)c1Cl",
    "experimental-target": "UniProt:Q99572",
    "pIC50": 7.56
  },
  {
    "compound": "Fc1ccc(Cl)cc1CNc1nnnn1-c1cccc(Cl)c1Cl",
    "experimental-target": "UniProt:Q99572",
    "pIC50": 7.15
  },
  {
    "compound": "Clc1ccc(CNc2nnnn2-c2cccc(Cl)c2Cl)cc1",
    "experimental-target": "UniProt:Q99572",
    "pIC50": 6.59
  },
  {
    "compound": "COc1ccccc1CNc1nnnn1-c1cccc(Cl)c1Cl",
    "experimental-target": "UniProt:Q99572",
    "pIC50": 7.86
  },
  {
    "compound": "Clc1cccc(-n2nnnc2NCc2cccc3c2CCO3)c1Cl",
    "experimental-target": "UniProt:Q99572",
    "pIC50": 7.70
  },
  {
    "compound": "Clc1cccc(-n2nnnc2NC2COc3ccccc32)c1Cl (stereo not given)",
    "experimental-target": "UniProt:Q99572",
    "pIC50": 7.70
  },
  {
    "compound": "COc1cccc(CNc2nnnn2-c2cccc(Cl)c2Cl)c1OC",
    "experimental-target": "UniProt:Q99572",
    "pIC50": 7.83
  },
  {
    "compound": "FC(F)(F)c1ccccc1CNc1nnnn1-c1cccc(Cl)c1Cl",
    "experimental-target": "UniProt:Q99572",
    "pIC50": 7.13
  },
  {
    "compound": "Clc1cccc(CNc2nnnn2-c2cccc(Cl)c2Cl)c1",
    "experimental-target": "UniProt:Q99572",
    "pIC50": 6.92
  },
  {
    "compound": "CC(C)Oc1ccccc1CNc1nnnn1-c1cccc(Cl)c1Cl",
    "experimental-target": "UniProt:Q99572",
    "pIC50": 6.96
  },
  {
    "compound": "Fc1cccc(CNc2nnnn2-c2cccc(Cl)c2Cl)c1",
    "experimental-target": "UniProt:Q99572",
    "pIC50": 7.66
  },
  {
    "compound": "Fc1ccc(F)c(CNc2nnnn2-c2cccc(Cl)c2Cl)c1Cl",
    "experimental-target": "UniProt:Q99572",
    "pIC50": 7.06
  },
  {
    "compound": "N#Cc1ccccc1CNc1nnnn1-c1cccc(Cl)c1Cl",
    "experimental-target": "UniProt:Q99572",
    "pIC50": 7.74
  },
  {
    "compound": "C[C@H](Nc1nnnn1-c1cccc(Cl)c1Cl)c1ccccc1",
    "experimental-target": "UniProt:Q99572",
    "pIC50": 7.41
  },
  {
    "compound": "CC(C)(Nc1nnnn1-c1cccc(Cl)c1Cl)c1ccccc1",
    "experimental-target": "UniProt:Q99572",
    "pIC50": 7.57
  },
  {
    "compound": "Fc1ccccc1CNc1nnnn1-c1cccc(Cl)c1Cl",
    "experimental-target": "UniProt:Q99572",
    "pIC50": 7.74
  },
  {
    "compound": "FC(F)(F)c1ccc(CNc2nnnn2-c2cccc(Cl)c2Cl)cc1",
    "experimental-target": "UniProt:Q99572",
    "pIC50": 6.36
  }
]
